For each entry below, report its Ki value.
# Test System: HIV protease (Human immunodeficiency virus type 1 group M subtype B)
# Construct: A third viral enzyme known as protease then cleaves the polyproteins
# Assay Explanation: Enzymatic Assay for Determining the Inhibition Constant (Ki) of Synthetic Compounds Targeting the HIV Protease (fluorometric FRET assay)
# Type: biochemical
Only the number, expressed in nM, is required.

Please report the measured Ki for Cc1ccc(S(=O)(=O)N(CC(C)C)[C@H](CO)CCCCNC(=O)[C@H](Cc2c[nH]c3ccccc23)NS(=O)(=O)c2ccc([N+](=O)[O-])cc2)cc1
27

Please report the measured Ki for Cc1ccc(S(=O)(=O)N(CC(C)C)[C@@H](CCCCNC(=O)[C@H](Cc2cn(Cc3ccccc3)cn2)NC(=O)OC(C)(C)C)C(=O)O)cc1
124

Please report the measured Ki for CCC[C@H](NS(=O)(=O)c1ccccc1)C(=O)NCCCC[C@@H](C(=O)O)N(CC(C)C)S(=O)(=O)c1ccc(C)cc1
185

Please report the measured Ki for Cc1ccc(S(=O)(=O)N(CC(C)C)[C@@H](CCCCNC(=O)CNc2cnc3ccccc3c2)C(=O)O)cc1
12

* * *

# Test System: HIV protease (Human immunodeficiency virus type 1 group M subtype B, UniProt P04585)
# Construct: A third viral enzyme known as protease then cleaves the polyproteins
# Assay Explanation: Enzymatic Assay for Determining the Inhibition Constant (Ki) of Synthetic Compounds Targeting the HIV Protease (fluorometric FRET assay)
# Type: biochemical
# Measurement Conditions: Table 1, compounds of formula I; read-out: Ki (anti-protease activity)
Counter-ions that a name gives are not always drawn.
For each entry below, report its pKi value.
On this scale, pKi is minus log10 of a concentration expressed in M (mol/L).

Please report the measured pKi for Cc1ccc(S(=O)(=O)N(CC(C)C)[C@H](CO)CCCCNC(=O)[C@H](Cc2ccncc2)NC(=O)OC(C)(C)C)cc1 [Example 136]
6.96

Please report the measured pKi for Cc1ccc(S(=O)(=O)N(CC(C)C)[C@H](CO)CCCCNC(=O)[C@@H](N)Cc2c[nH]c3ccccc23)cc1 [Example 183, Trifluoroacetic Acid Salt]
8.36

Please report the measured pKi for Cc1ccc(S(=O)(=O)N(CC(C)C)[C@H](CO)CCCCNC(=O)[C@H](Cc2ccccc2)NS(=O)(=O)c2ccc(F)cc2)cc1 [Example 125]
7.41

Please report the measured pKi for Cc1ccc(S(=O)(=O)N(CC(C)C)[C@H](CO)CCCCNC(=O)[C@H](Cc2ccccc2)NS(=O)(=O)c2cccs2)cc1 [Example 122]
8.09

Please report the measured pKi for CC(C)CN(CC(=O)NCCCC[C@@H](CO)N(CC(C)C)S(=O)(=O)c1ccc(N)cc1)c1ccccc1 [Example 181]
7.80

Please report the measured pKi for COc1ccc(S(=O)(=O)N(CC(C)C)[C@H](CO)CCCCNC(=O)[C@@H](N)Cc2c[nH]c3ccccc23)cc1 [Example 146, Trifluoroacetic Acid Salt]
7.82

* * *

# Test System: HIV protease (Human immunodeficiency virus type 1 group M subtype B, UniProt P04585)
# Construct: A third viral enzyme known as protease then cleaves the polyproteins
# Assay Explanation: Enzymatic Assay for Determining the Inhibition Constant (Ki) of Synthetic Compounds Targeting the HIV Protease (fluorometric FRET assay)
# Format: biochemical
Checkbox rule: Ki lower than 8 nM = satisfied; Ki not lower than 8 nM = not satisfied.

Answer whether the compound Cc1ccc(S(=O)(=O)N(CC(C)C)[C@H](CO)CCCCNC(=O)[C@H](Cc2c[nH]c3ccccc23)NC(=O)OCC(C)C)cc1 [Example 192] has Ki strictly less than 8 nM
satisfied

Answer whether the compound CNC(=O)N[C@@H](Cc1ccccc1)C(=O)NCCCC[C@@H](C(=O)O)N(CC(C)C)S(=O)(=O)c1ccc(C)cc1 [Example 198] has Ki strictly less than 8 nM
satisfied

Answer whether the compound Cc1ccc(S(=O)(=O)NCC(=O)NCCCC[C@@H](C(=O)O)N(CC(C)C)S(=O)(=O)c2ccc(C)cc2)cc1 [Example 21] has Ki strictly less than 8 nM
not satisfied

Answer whether the compound COC(=O)[C@H](CCCCNC(=O)[C@H](Cc1c[nH]c2ccccc12)NC(=O)OC(C)(C)C)N(CC1CCCC1)S(=O)(=O)c1ccc(OC)cc1 [Example 150] has Ki strictly less than 8 nM
not satisfied

Answer whether the compound Cc1ccc(S(=O)(=O)N(CC(C)C)[C@@H](CCCCNC(=O)[C@H](Cc2c[nH]c3ccccc23)NS(=O)(=O)c2ccccc2)C(=O)O)cc1 [Example 4] has Ki strictly less than 8 nM
satisfied

Answer whether the compound Cc1ccc(S(=O)(=O)N[C@H](C(=O)NCCCC[C@@H](C(=O)O)N(CC(C)C)S(=O)(=O)c2ccc(C)cc2)c2ccccc2)cc1 [Example 27] has Ki strictly less than 8 nM
not satisfied

Answer whether the compound Cc1ccc(S(=O)(=O)N[C@H](Cc2ccccc2)C(=O)NCCCC[C@H](C(=O)O)N(CC(C)C)S(=O)(=O)c2ccc(C)cc2)cc1 [Example 66] has Ki strictly less than 8 nM
not satisfied

Answer whether the compound Cc1ccc(S(=O)(=O)N(CC(C)C)[C@@H](CCCCNC(=O)[C@H](Cc2ccccc2)NS(=O)(=O)c2cccs2)C(=O)O)cc1 [Example 24] has Ki strictly less than 8 nM
satisfied

Answer whether the compound Cc1ccc(S(=O)(=O)N(CC(C)C)[C@@H](CCCCNC(=O)[C@H](Cc2ccccc2)NS(=O)(=O)c2ccc([N+](=O)[O-])cc2)C(=O)O)cc1 [Example 10] has Ki strictly less than 8 nM
not satisfied

Answer whether the compound Cc1ccc(S(=O)(=O)N(CC(C)C)[C@@H](CCCCNC(=O)[C@H](CC(C)C)NS(=O)(=O)c2ccccc2)C(=O)O)cc1 [Example 22] has Ki strictly less than 8 nM
not satisfied

Answer whether the compound Cc1ccc(S(=O)(=O)N(CC(C)C)[C@@H](CCCCNC(=O)[C@@H](N)Cc2ccc(OCc3ccccc3)cc2)C(=O)O)cc1 [Example 94] has Ki strictly less than 8 nM
not satisfied
